Listed compounds paired with reported purity estimated by HPLC, Day 14 Condition 54° C. ± 2° C.
- MEASUREMENT_PROTOCOL: Stability studies: storage at room temperature and under accelerated storage condition (ATS), purity estimated by HPLC
- Format: physicochemical
- STATED_CONDITIONS: Day 14; 54° C. ± 2° C. (accelerated storage); properly packed material

Reference set, count: 2
COMPOUND	RESULT
N#Cc1ccc(/C=C/C=N/[C@@H](CCCNC(=N)N)C(=O)O)cc1 [Example 20]	98.90
N=C(N)NCCC[C@H](/N=C/C=C/c1ccccc1)C(=O)O [Example 9]	99.64

Lab note: N=C(N)NCCC[C@H](/N=C/C=C/c1c(O)cccc1F)C(=O)O [Example 3] gave purity estimated by HPLC, Day 14 Condition 54° C. ± 2° C. of 98.79

Lab note: N=C(N)NCCC[C@H](/N=C/C=C/c1ccc2ccccc2c1)C(=O)O [Example 24] gave purity estimated by HPLC, Day 14 Condition 54° C. ± 2° C. of 98.90

Lab note: N#Cc1ccc(C=CC=NC(CCCNC(=N)N)C(=O)O)c(C(F)(F)F)c1 (centres unmarked) [Example 39] gave purity estimated by HPLC, Day 14 Condition 54° C. ± 2° C. of 99.60

====

Listed compounds paired with reported purity estimated by HPLC, Day Zero Condition 25° C. ± 2° C.
- MEASUREMENT_PROTOCOL: Stability studies: storage at room temperature and under accelerated storage condition (ATS), purity estimated by HPLC
- Type: physicochemical
- STATED_CONDITIONS: Day Zero; 25° C. ± 2° C.; properly packed material

Reference set, count: 4
COMPOUND	RESULT
N#Cc1ccc(/C=C/C=N/[C@@H](CCCNC(=N)N)C(=O)O)cc1	99.55
N=C(N)NCCC[C@H](/N=C/C=C/c1c(O)cccc1F)C(=O)O	99.23
N=C(N)NCCC[C@H](/N=C/C=C/c1ccc2ccccc2c1)C(=O)O	98.90
N#Cc1ccc(C=CC=NC(CCCNC(=N)N)C(=O)O)c(C(F)(F)F)c1 (centres unmarked)	99.40

Kindly consider the entry below.
Lab note: `N=C(N)NCCC[C@H](/N=C/C=C/c1ccccc1)C(=O)O` gave purity estimated by HPLC, Day Zero Condition 25° C. ± 2° C. of 99.60

====

Listed compounds paired with reported mortality at 500 ppm
- System: Root-knot nematodes Meloidogyne spp. juveniles (J2)
- MEASUREMENT_PROTOCOL: whole plant or invertebrate
- Assay type: in vivo
- STATED_CONDITIONS: Meloidogyne, 70-100 J2 juveniles, 22±2° C., 70±5% RH, dead/inactive counted at 24, 48, 72 and 96 hours (time of rating not stated)

CHEMICAL_STRING	mortality at 500 ppm
COc1ccccc1/C=C/C=N/[C@@H](CCCNC(=N)N)C(=O)O	70 to 100%
N=C(N)NCCC[C@H](/N=C/C=C/c1ccc2ccccc2c1)C(=O)O	50 to 69%
N=C(N)NCCC[C@H](/N=C/C=C/c1ccc(F)cc1O)C(=O)O	50 to 69%
N=C(N)NCCC[C@H](/N=C/C=C/c1ccsc1)C(=O)O	70 to 100%
N=C(N)NCCC[C@H](/N=C/C=C/c1ccccc1O)C(=O)O	70 to 100%
N=C(N)NCCC[C@H](/N=C/C=C/c1ccccc1OC(=O)c1ccccc1)C(=O)O	0 to 49%

Lab note: `N=C(N)NCCC[C@H](/N=C/C=C/c1nccs1)C(=O)O` gave mortality at 500 ppm of 50 to 69%

Lab note: `N#Cc1ccc(/C=C/C=N/[C@@H](CCCNC(=N)N)C(=O)O)cc1` gave mortality at 500 ppm of 70 to 100%

Lab note: `Cc1ccc(/C=C/C=N/[C@@H](CCCNC(=N)N)C(=O)O)cc1` gave mortality at 500 ppm of 70 to 100%

Lab note: `CCCCCCC(/C=N/[C@@H](CCCNC(=N)N)C(=O)O)=C\c1ccccc1` gave mortality at 500 ppm of 0 to 49%

Lab note: `COc1cc(/C=C/C=N/[C@@H](CCCNC(=N)N)C(=O)O)ccc1OC(C)=O` gave mortality at 500 ppm of 0 to 49%
